Biological target: T1, recombinant human CD63 extracellular loop 2 expressed with a C-terminal Myc-Myc-hexahistidine (human)
T1 construct: also called hCD63 EC loop 2-MMH; human CD63 EC loop 2-MMH
T1 sequence (chain, as listed by the source limits assumed): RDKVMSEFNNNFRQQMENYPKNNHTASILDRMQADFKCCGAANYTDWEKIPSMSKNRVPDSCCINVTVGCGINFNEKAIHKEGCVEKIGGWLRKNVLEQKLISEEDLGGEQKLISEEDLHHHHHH
Assay: SPR Biacore, mAb captured, 37C
# maps each entry to its koff
Write the value in s⁻¹ as a bare number.

[[record]]
binder = "H2M13022N (antibody, V domains shown, also called H2bM13022N) VH: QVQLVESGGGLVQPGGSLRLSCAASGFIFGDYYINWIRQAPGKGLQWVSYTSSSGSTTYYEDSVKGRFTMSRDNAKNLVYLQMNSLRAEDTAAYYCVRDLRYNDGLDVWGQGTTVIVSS VL: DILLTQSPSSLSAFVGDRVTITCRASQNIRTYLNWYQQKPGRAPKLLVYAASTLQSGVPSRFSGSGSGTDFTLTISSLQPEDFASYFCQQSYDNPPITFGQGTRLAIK"
recorded_measurement = 0.00671


(Q) What value of koff has been recorded for this entry: H2M12387N (antibody, V domains shown, also called H2aM12387N) VH: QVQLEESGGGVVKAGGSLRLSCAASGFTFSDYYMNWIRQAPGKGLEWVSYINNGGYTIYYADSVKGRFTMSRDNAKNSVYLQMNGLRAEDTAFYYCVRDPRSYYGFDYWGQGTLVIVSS VL: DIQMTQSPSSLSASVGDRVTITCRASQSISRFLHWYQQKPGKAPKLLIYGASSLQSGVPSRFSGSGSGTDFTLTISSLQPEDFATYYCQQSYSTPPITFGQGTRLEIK
(A) 0.00354
